System tested: T1, human CD81 on CD81-expressing cells (Jurkat E6.1, human PBMC, Ramos) (human, UniProt P60033 1-236)
T1 sequence: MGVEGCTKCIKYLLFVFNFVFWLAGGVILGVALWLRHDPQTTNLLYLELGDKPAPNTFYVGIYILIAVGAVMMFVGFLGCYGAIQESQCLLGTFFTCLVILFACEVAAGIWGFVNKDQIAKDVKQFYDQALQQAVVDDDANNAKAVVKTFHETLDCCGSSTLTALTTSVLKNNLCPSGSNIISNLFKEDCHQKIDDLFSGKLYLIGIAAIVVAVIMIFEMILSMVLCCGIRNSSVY
Test details: cell-based or functional assay
Each entry below lists one item and its recorded Jurkat chemotaxis (% of control IgG4) at 0.001 µg/mL value.
// units = %; emit number, no label

Example results:
[
  {
    "Binder": "002-A07 N113G (antibody, human IgG4 S228P, lambda, V domains shown, IgG4 S228P; glycosylation site mutant of 002-A07 VL) VH: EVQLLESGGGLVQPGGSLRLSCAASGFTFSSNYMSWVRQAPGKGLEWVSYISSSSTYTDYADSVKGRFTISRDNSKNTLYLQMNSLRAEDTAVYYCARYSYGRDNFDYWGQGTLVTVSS VL: QSVLTQPPSASGTPGQRVTISCTGSTSNIGAGYDTHWYQQLPGTAPKLLIYGNSNRPSGVPDRFSGSKSGTSASLAISGLRSEDEADYYCQSYDTGLSVWVFGGGTKLTVLG",
    "Measured value": 99
  },
  {
    "Binder": "002-A07 N113S (antibody, human IgG4 S228P, lambda, V domains shown, IgG4 S228P; glycosylation site mutant of 002-A07 VL) VH: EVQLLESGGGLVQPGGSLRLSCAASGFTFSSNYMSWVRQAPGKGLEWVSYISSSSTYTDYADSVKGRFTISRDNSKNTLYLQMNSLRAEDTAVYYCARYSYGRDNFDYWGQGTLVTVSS VL: QSVLTQPPSASGTPGQRVTISCTGSTSNIGAGYDTHWYQQLPGTAPKLLIYGNSNRPSGVPDRFSGSKSGTSASLAISGLRSEDEADYYCQSYDTSLSVWVFGGGTKLTVLG",
    "Measured value": 99
  },
  {
    "Binder": "002-B05 (antibody, human IgG4 S228P, lambda, V domains shown, IgG4 S228P) VH: EVQLLESGGGLVQPGGSLRLSCAASGFTFSSNYMSWVRQAPGKGLEWVSYISSSSTYTDYADSVKGRFTISRDNSKNTLYLQMNSLRAEDTAVYYCARYSYSRDNFDYWGQGTLVTVSS VL: QSVLTQPPSASGTPGQRVTISCTGSTSNIGAGYGTHWYQRLPGTAPKLLIYGNSNRPSGVPDRFSGSKSGTSASLAISGLRSEDEADYYCQSYDTNLSVWVFGGGTKLTVLG",
    "Measured value": 84
  }
]

Please look up its Jurkat chemotaxis (% of control IgG4) at 0.001 µg/mL: 002-C09 (antibody, human IgG4 S228P, lambda, V domains shown, IgG4 S228P) VH: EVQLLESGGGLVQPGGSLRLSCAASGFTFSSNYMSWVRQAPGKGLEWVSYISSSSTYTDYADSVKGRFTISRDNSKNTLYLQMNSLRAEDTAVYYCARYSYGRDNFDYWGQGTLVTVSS VL: QSVLTQPASASGTPGQRVTISCTGSTSNIGAGYGTHWYQRLPGTAPKLLIYGNSNRPSGVPDRFSGSKSGTSASLAISGLRSEDEADYYCQSYDTNLSGWVFGGGTKLTVLG
101
